The measurements presented in this section are drawn from ChEMBL document CHEMBL1201862.

- Tested on: TK-10
- assay.summary: NCI tumour cell line growth inhibition, 48 h
The source made the active and inactive calls. Cut-off read from the data, not from the text of the source: active = GI50 up to about 1.1 µM and inactive = higher. *1 amine or outer side, *2 acyl side, *3 side chain or, on linkers, in order; H or OH if unused. Where a SMILES comes first, the peptide text is derived from it. The star is where a group is joined. γGlu = O=C(O)[CH](CCC(=O)[*:2])N[*:1]; NHOH = ON*
Just give me one of these, please: true = active, false = inactive

compound=C/C(CN1C(=O)c2ccccc2C1=O)=N\NS(=O)(=O)c1ccc(Br)cc1 assayed_target=TK-10 label_value=false
compound=CC1=C(C(=O)NNC(=O)C[N+](C)(C)C)CC(C(=O)NNC(=O)C[N+](C)(C)C)=C(C)N1 assayed_target=TK-10 label_value=false
compound=O=C(O)c1[nH]c2c([N+](=O)[O-])cc([N+](=O)[O-])cc2c1C(=O)O assayed_target=TK-10 label_value=false
compound="NC(CCC(=O)NC(CCC(=O)NO)C(=O)NCC(=O)O)C(=O)O (centres undefined) (γGlu-Glu(NHOH)-Gly-OH; configuration not given here)" assayed_target=TK-10 label_value=false
compound=Cn1c(=O)c2nc(SCc3ccccn3)[nH]c2n(C)c1=S assayed_target=TK-10 label_value=false
compound=c1ccc(-c2ccnc3c2ccc2c(-c4ccccc4)ccnc23)cc1 assayed_target=TK-10 label_value=true
compound=O=C(CC(=O)Nc1cccc(C(=O)O)c1)Nc1cccc(C(=O)O)c1 assayed_target=TK-10 label_value=false
compound="COc1c2c(cc3c1OCO3)[C@]13C=C[C@H](OC)C[C@H]1N(C2)CC3O (some centres undefined)" assayed_target=TK-10 label_value=false

Task: How did this test come out for NC1=NN(c2ccccc2)C(=O)C1C(=O)CCC(=O)Nc1cccc(C(F)(F)F)c1 (centres undefined) ?
Result: false

---

- Tested on: CAKI-1
- assay.summary: NCI tumour cell line growth inhibition, 48 h
The source made the active and inactive calls. Cut-off read from the data, not from the text of the source: active = GI50 up to about 1.1 µM and inactive = higher.
// values below are reported GI50

Lookup result for CC1(C)C[C@@H]2C1CCC1(C)CC2(O)CC[C@H]1O (stereo not given in full) ; measured GI50: > 100 µM (inactive)

Lookup result for O=C(/C=C/c1ccccc1)C[C@@H](O)C[C@@H]1CC=CC(=O)O1 ; measured GI50: 14.2 µM (inactive)

Lookup result for O=C1C(Br)=C(Br)C(=O)c2ccccc21 ; measured GI50: 6.34 µM (inactive)

Lookup result for O=C1OC(=O)C2=C1C(c1cccs1)C=C(c1cccnc1)N2c1ccncc1 (stereo not given) ; measured GI50: 15.1 µM (inactive)

Lookup result for CCCCCCCCCCCCCCCCCC(=O)O[C@H](COC(=O)CCCCCCCCCCC)COC(=O)CCCCCCCCCCCCCCC ; measured GI50: > 100 µM (inactive)

Lookup result for OCC1NCC(O)C(O)C1O (stereo not given) ; measured GI50: > 100 µM (inactive)

---

// values below are reported GI50
- System: MDA-MB-435
- assay.summary: NCI tumour cell line growth inhibition, 48 h
Activity calls are given as the source filed them. Cut-off read from the data, not from the text of the source: active = GI50 up to about 1.1 µM and inactive = higher.

Field: example entries. Status: answers known.
compound="C#C/C=C/CC1OC(C(Br)CC)CC(Br)C2CC1O2 (stereo unspecified)" assayed_target=MDA-MB-435 reading="86.5 µM (inactive)"
compound=O=C1/C(=C/c2ccc(F)cc2)CNC/C1=C\c1ccc(F)cc1 assayed_target=MDA-MB-435 reading="2.49 µM (inactive)"
compound=Cc1c2c(c(C)c3c4c(oc13)CCCC4)C=NCC2 assayed_target=MDA-MB-435 reading="14.4 µM (inactive)"
compound=CN(/N=C(\C(=O)O)c1ccccc1)C1=NCCCCN1 assayed_target=MDA-MB-435 reading="> 100 µM (inactive)"
compound=COc1ccc(CNC2=Nc3ccncc3S(=O)(=O)N2c2ccccc2)cc1 assayed_target=MDA-MB-435 reading="24.9 µM (inactive)"

Now, please, on to the next compound.
Lookup result for COc1cc(NCC2COc3c(ccc(OC)c3OC)C2=O)c([N+](=O)[O-])cc1OC (stereo unspecified) ; measured GI50: > 100 µM (inactive)

---

- System: T47D
- assay.summary: NCI tumour cell line growth inhibition, 48 h
Active and inactive are the calls of the source. Cut-off read from the data, not from the text of the source: active = GI50 up to about 1.1 µM and inactive = higher.
Just give me one of these, please: active, inactive

Task: How did this test come out for Cc1ccc2c(O)cc(-c3cccs3)nc2n1 ?
Result: inactive

Task: How did this test come out for CC(=O)O[C@@H](C1C[C@@H](C)[C@H]2[C@@](O)(O1)[C@H](O)[C@@]1(C)C3=CC[C@H]4C(C)(C)[C@@H](OC5OCC(O)C(O)C5O)CC[C@@]45C[C@@]35CC[C@]21C)C(C)(C)O (stereo not given in full) ?
Result: inactive

Task: How did this test come out for Cc1nc(Cl)c(Cl)c(Cl)n1 ?
Result: active

Task: How did this test come out for CCN(CC)CCNc1ccc2nnn3c4ccc(OCCN(CC)CC)cc4c(=O)c1c23 ?
Result: inactive

Task: How did this test come out for COC(=O)[C@]1(C)CCC[C@@]2(C)[C@@H]3C[C@@H]4[C@H]5C[C@@]3(CC[C@@H]21)C[C@@]45C ?
Result: inactive

Task: How did this test come out for c1ccc(C(c2cccc3c2ccc2ccccc23)C(c2ccccc2)c2cccc3c2ccc2ccccc23)cc1 (stereo not given) ?
Result: inactive

Task: How did this test come out for CC(C)(C)c1cc(C(CO)OCCOCCO)cc(C(C)(C)C)c1O (stereo not given) ?
Result: inactive

Task: How did this test come out for N#CC12C(=O)N3C(=NC(c4ccco4)NC3c3ccco3)C1(C#N)C(c1ccco1)NC1=C2CCCC1 (stereo not given) ?
Result: inactive

Task: How did this test come out for Cc1cc(N(CCC#N)CCC#N)ccc1C(/N=N/c1ccc([N+](=O)[O-])cc1)=N\NC(=O)c1ccccc1 ?
Result: inactive

Task: How did this test come out for Oc1ccc2ccccc2c1-c1nnc(CCCCCCCCc2nnc(-c3c(O)ccc4ccccc34)o2)o1 ?
Result: inactive

Task: How did this test come out for COc1cccc(NC(=O)CC(=O)N2N=C(C)C(/N=N/c3ccc(C(=O)O)cc3)C2=O)c1 (stereo not given) ?
Result: inactive

Task: How did this test come out for C[Si](C)(C)C#CCOC=C1CC1 ?
Result: inactive

Task: How did this test come out for C=C1CCC2[C@](C)(CCC[C@]2(C)C(=O)O)[C@@H]1CCc1ccoc1 (stereo not given in full) ?
Result: inactive

Task: How did this test come out for Cc1nc(C)c(N2CCNCC2)c(O)n1 ?
Result: inactive

Task: How did this test come out for CN(C)CCNc1c([N+](=O)[O-])sc2ccc(Cl)cc12 ?
Result: inactive

Task: How did this test come out for Cc1cc(S(=O)(=O)[N-]C(=C(C#N)C#N)[n+]2ccc(N(C)C)cc2)c(SCC(=O)O)cc1Cl ?
Result: inactive

Task: How did this test come out for Cc1csc(-c2cn(C)c3c2C(=O)C(=N)C=C3O)n1 ?
Result: inactive

Task: How did this test come out for COc1ccc(N2C=Nn3c(nc4sc5c(c4c3=O)CCCC5)C2)cc1 ?
Result: inactive

Task: How did this test come out for COc1ccc(NC(=S)NN=C(C)c2cccc(C(C)=NNC(=S)Nc3ccc(OC)cc3)n2)cc1 ?
Result: inactive

Task: How did this test come out for COC(=O)C1=C(O)C(C(=O)OC)[C@@]2(O)[C@@H](C(=O)OC)[C@H](C)[C@@H](C)[C@@H]1[C@@H]2C(=O)OC (stereo not given in full) ?
Result: inactive

---

// values below are reported GI50
- System: UO-31
- assay.summary: NCI tumour cell line growth inhibition, 48 h
The source made the active and inactive calls. Rule as the data show it: active = GI50 up to about 1.1 µM and inactive = higher.

Field: example entries. Status: answers known.
compound="CC(C)(C)c1cc(C(CO)OCCOCCO)cc(C(C)(C)C)c1O (stereo unspecified)" reading="> 100 µM (inactive)"
compound=Cc1cc(C)c2c(n1)S(=O)(=O)N(CCCN1CCN(c3cccc(C(F)(F)F)c3)CC1)c1c-2nn(C)c1C reading="44.4 µM (inactive)"
compound="O=C1c2ccccc2C(=O)c2c(NCC(O)CO)ccc(NCC(O)CO)c21 (stereo unspecified)" reading="17.8 µM (inactive)"
compound=Cc1cc(N(CCC#N)CCC#N)ccc1C(/N=N/c1ccc([N+](=O)[O-])cc1)=N\NC(=O)c1ccccc1 reading="34.4 µM (inactive)"
compound="COc1cccc2c1C1(O)C2CCCCCCCCCC12OCCCO2 (stereo unspecified)" reading="> 43.3 µM (inactive)"
compound="Cc1ccc(C(=O)Nc2ncn(C3CC(O)C(CO)O3)c(=O)n2)cc1 (stereo unspecified)" reading="> 100 µM (inactive)"

Form: item On1c(-c2ccccc2)nc2ccccc2c1=S ; test system UO-31; GI50: 3.39 µM (inactive)

Form: item Nc1nc(Cl)cc(NCC2CC(O)(CO)C2)n1 (stereo unspecified) ; test system UO-31; GI50: > 100 µM (inactive)

Form: item CC(=O)COC(=O)CC(C)=O ; test system UO-31; GI50: > 100 µM (inactive)

Form: item NC(=O)c1c(NC=O)ncn1C1OCC(O)C(O)C1O (stereo unspecified) ; test system UO-31; GI50: > 100 µM (inactive)

Form: item CCN(CC)CCNc1ccc2nnn3c4ccc(OCCN(CC)CC)cc4c(=O)c1c23 ; test system UO-31; GI50: 89.9 µM (inactive)
